Collected cytotoxicity at 10 µM values appear next to each entry.
# Protocol Summary: Toxicity liver stage against HepG2, at 10uM
# Format: cell-based
# Design: test concentration 10 uM, cell line HepG2-A16-CD81EGFP
# Condition Description: human, HepG2-A16-CD81EGFP cells; read-out: INHIBITION
Record the value in %, omitting the unit from your answer.

Worked examples follow.
Molecule	Metric Name	Units Of Measure	Measurement
Cc1ccc(CN2CCN(c3ncccc3C(N)=O)CC2CCO)cc1 (stereo unspecified)	cytotoxicity at 10 µM	%	-13.3
COCC(=O)Nc1ccc2c(c1)C1(CCOCC1)CN2CCF	cytotoxicity at 10 µM	%	-99.6
CN(Cc1cc2n(n1)CCNC2)Cc1cc(-c2ccccn2)no1	cytotoxicity at 10 µM	%	1.91
Cc1csc(CN2C[C@@H]3CN(CC4CCOCC4)CCO[C@@H]3C2)n1	cytotoxicity at 10 µM	%	-109
CC(=O)N1CCCC(C(=O)N2CCN(c3cnn(C)c(=O)c3)CC2)C1 (stereo unspecified)	cytotoxicity at 10 µM	%	0.761
Cn1ccc(C(=O)N2CCN(CC(O)C(C)(C)C)CC2)cc1=O (stereo unspecified)	cytotoxicity at 10 µM	%	2.76
O=C(c1cc[nH]n1)N1CCC(Nc2cccnn2)CC1	cytotoxicity at 10 µM	%	-0.529
Cc1nccn1C1CCCN(C(=O)c2ccc(-n3cccn3)nc2)C1 (stereo unspecified)	cytotoxicity at 10 µM	%	-9.18

Exercise: Tell me the measured cytotoxicity at 10 µM of O=C(CC1CC1)N1CCC2(CC1)CC(Oc1ccccc1)CO2 (stereo unspecified) , please.
Key: -0.82

Exercise: One more molecule: COc1ccc2c(c1)CCN2Cc1nc2c(cnn2C)c(=O)[nH]1
Key: -10.3

Exercise: Input CC(C)c1nnc2n1CCN(CCC(=O)N1CCc3ccccc31)C2
Key: -21.1

====

# Protocol Summary: Toxicity liver stage against HepG2, at 10uM
# Type: cell-based
# Set-up: test concentration 10 uM, cell line HepG2-A16-CD81EGFP
# Condition Description: human, HepG2-A16-CD81EGFP cells; read-out: INHIBITION
cytotoxicity at 10 µM overview
Numbers only; they are read as %.

Exercise: Entry C[C@H]1CN2C[C@H](O)CC2CN1Cc1ccncc1 (some centres undefined) : reported cytotoxicity at 10 µM = ?
Key: -3.02

Exercise: Here is the next compound: O=C(CN1CCCC1Cn1cncn1)Nc1nncs1 (centres undefined)
Key: 5.05

====

# Protocol Summary: Toxicity liver stage against HepG2, at 10uM
# Assay type: cell-based
# Parameters: test concentration 10 uM, cell line HepG2-A16-CD81EGFP
# Condition Description: human, HepG2-A16-CD81EGFP cells; read-out: INHIBITION
# Lookup of reported cytotoxicity at 10 µM keyed by entry
Enter your answer as a number in %; do not include the unit.

Molecule	Units Of Measure	cytotoxicity at 10 µM
CCN(CC)CCNCC1CCOC(C)(C)C1 (configuration not stated)	%	-6.87

Exercise: Consider the molecule shown here: CCn1ncnc1CN(C/C=C/c1ccccc1)CCOC What is its recorded cytotoxicity at 10 µM?
Key: 4.3

Exercise: Another molecule to look at: COc1ncccc1NC(=O)c1[nH]nc(C(C)C)c1Br
Key: 17.1

Exercise: Then CC(C)c1nnc2n1CCN(C(=O)c1ccc(OCC3CC3)nc1)C2 ?
Key: -0.556

Exercise: Further, for CC(Cn1ccnc1)NC(=O)NCc1ccccn1 (configuration not stated) ?
Key: -6.66

Exercise: Then Cc1nn(C)cc1C(=O)NCc1cc(N(C)C)nc2ccccc12 ?
Key: 2.29

Exercise: Also check CSCC(=O)NC1(c2cccc(Cl)c2)CC1
Key: -1.54

Exercise: Can you check Cc1noc(C)c1CN1C[C@@H]2CN(C(=O)c3cscn3)C[C@@H]2C1 next?
Key: -3.09
